System: K562
Assay: Cytotoxicity against human K562 cells after 24 hrs by MTT assay
Assay type: functional, cell-based
Conditions: K562, 24 h
I'd appreciate it if you could supply pIC50 values for the items below.
Reminder that pIC50 is minus the log10 of a molar concentration.

Using the record for CCOP(=O)(OCC)C(Nc1nccs1)c1ccc(-c2ccncc2)cc1 (stereo not given) , state its measured pIC50.
4.62

Using the record for CCOP(=O)(OCC)C(Nc1nc2ccc([N+](=O)[O-])cc2s1)c1ccc(-c2ccncc2)cc1 (stereo not given) , state its measured pIC50.
4.51

Using the record for CCOP(=O)(OCC)C(Nc1cccc(Br)c1)c1ccc(-c2ccncc2)cc1 (stereo not given) , state its measured pIC50.
5.00

Using the record for CCOP(=O)(OCC)C(Nc1ccc(F)c(Cl)c1)c1ccc(-c2ccncc2)cc1 (stereo not given) , state its measured pIC50.
4.66

Using the record for CCOP(=O)(OCC)C(Nc1ccncc1)c1ccc(-c2ccncc2)cc1 (stereo not given) , state its measured pIC50.
4.49

Using the record for CCOP(=O)(OCC)C(Nc1nc2ccccc2s1)c1ccc(-c2ccncc2)cc1 (stereo not given) , state its measured pIC50.
4.46

Using the record for CCOP(=O)(OCC)C(Nc1ccc(Cl)c([N+](=O)[O-])c1)c1ccc(-c2ccncc2)cc1 (stereo not given) , state its measured pIC50.
4.72

Using the record for CCOP(=O)(OCC)C(Nc1cccc([N+](=O)[O-])c1)c1ccc(-c2ccncc2)cc1 (stereo not given) , state its measured pIC50.
4.70

Using the record for CCOP(=O)(OCC)C(NCc1cccnc1)c1ccc(-c2ccncc2)cc1 (stereo not given) , state its measured pIC50.
5.00
